The reported numbers originate from patent US8735387B2.

This listing pairs compounds with measured % Activation (Edg-1 receptor activation in percent of the activation by 10 μM S1P).
Molecular target: human Edg-1 receptor (Homo sapiens)
Construct: expressed in transfected cells; membrane preparation
Sequence (P21453 whole entry): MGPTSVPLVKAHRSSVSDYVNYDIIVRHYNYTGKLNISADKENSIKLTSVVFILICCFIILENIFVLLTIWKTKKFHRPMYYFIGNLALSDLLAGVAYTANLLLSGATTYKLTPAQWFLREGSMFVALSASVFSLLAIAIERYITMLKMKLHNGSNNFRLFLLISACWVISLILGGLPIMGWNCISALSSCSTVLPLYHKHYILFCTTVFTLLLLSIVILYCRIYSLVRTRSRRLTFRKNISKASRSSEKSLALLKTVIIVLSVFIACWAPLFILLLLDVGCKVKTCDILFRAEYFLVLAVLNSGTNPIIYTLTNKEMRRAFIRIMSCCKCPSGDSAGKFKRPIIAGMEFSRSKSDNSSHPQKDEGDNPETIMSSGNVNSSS
Test: GTP-γ-S assay using human Edg-1 receptors (scintillation proximity assay, membrane preparation from CHO Flp-In cell line)
Format: biochemical
Details: example compound at 10 μM; relative to 10 μM S1P; GTP-γ-S SPA, human Edg-1 membranes
From the text: Determination of the Pharmacological Activity A) GTP-γ-S Assay Using Human Edg-1 Receptors In order to determine the Edg-1 receptor activation by the compounds of the invention, a GTP-γ-S (guanosine 5′-[γ-thio]triphosphate) assay for G-protein coupled receptor binding based on the scintillation proximity assay principle was used, employing a cell membrane preparation from a CHO Flp-In cell line which constitutively overexpresses the human Edg-1 receptor. […]
Give a bare numeral; the unit % is implied.

Worked cases, answers included:
compound="CCOc1nc(Cc2ccc(Cl)cc2)nc2oc(-c3cc(C)c(OCC(O)CN(C)C)c(C)c3)nc12 (stereo not drawn)" assay_value=55
compound=CCOc1nc(Cc2ccc(Cl)cc2)nc2oc(-c3cc(C)c(OCCCSc4nnc(C5CC5)[nH]4)c(C)c3)nc12 assay_value=54
compound=CCCOc1nc(CN2CCC(C(F)(F)F)CC2)nc2oc(-c3cccc(F)c3)nc12 assay_value=82

Report % Activation (Edg-1 receptor activation in percent of the activation by 10 μM S1P) on human Edg-1 receptor (Homo sapiens) for this entry: CCOc1nc(Cc2ccc(Cl)cc2)nc2oc(-c3cccc(OCC(=O)N[C@@H](CO)C(=O)O)c3)nc12
99

Give % Activation (Edg-1 receptor activation in percent of the activation by 10 μM S1P) for this entry on human Edg-1 receptor (Homo sapiens): CCOc1nc(Cc2ccc(Cl)cc2)nc2oc(-c3cc(C)c(OCC(=O)NCCN4CCOCC4)c(C)c3)nc12
106

Write % Activation (Edg-1 receptor activation in percent of the activation by 10 μM S1P) of CCCOc1nc(CN2C(=O)COCC2=O)nc2oc(-c3cccc(F)c3)nc12 ; system used: human Edg-1 receptor (Homo sapiens)
94

Give reported % Activation (Edg-1 receptor activation in percent of the activation by 10 μM S1P) for CCOc1nc(Cc2ccc(Cl)cc2)nc2oc(-c3cc(C)c(OCC(=O)N4CC[C@@H]5C[C@@]54C(=O)O)c(C)c3)nc12 (human Edg-1 receptor (Homo sapiens))
101
